tested_on: GLP-1 receptor (GLP-1R), primary cAMP assay (human, UniProt P43220 24-463)
method_notes: cell-based or functional assay
Starred links: 1 amine or outer side, 2 acyl side, 3 side chain; linkers in the order of their positions; H or OH if unused. Non-standard residues stand in square brackets, D forms with d. Groups on a side chain read outwards from the residue. Primed or numbered codes have the meaning given here. No end group written: not given here. *: point of attachment. Tyr(OMe) = COc1ccc(C[C@H](N[*:1])C(=O)[*:2])cc1; γGlu = O=C(O)[C@H](CCC(=O)[*:2])N[*:1]; Palmitoyl = CCCCCCCCCCCCCCCC(=O)*; αMeF = C[C@](N)(Cc1ccccc1)C(=O)O; αMeK = C[C@](N)(CCCCN)C(=O)O; Lauroyl = CCCCCCCCCCCC(=O)*; αMeS = C[C@](N)(CO)C(=O)O; Nle = CCCC[C@H](N)C(=O)O; PEG2′ = not defined here; Aib = CC(C)(N)C(=O)O
observed_property: Primary assay EC50 (cAMP), n2 (nM)

{"binder": "H[Aib]EGS[αMeF]TSDV[αMeS]SK([PEG2′-PEG2′-γGlu-Lauroyl])LEGEAA[αMeK]E[Nle]IAK([PEG2′-PEG2′-γGlu-Lauroyl])VVEGG-NH2 [SEQ ID NO: 407]", "Primary assay EC50 (cAMP), n2 (nM)": 0.00201}

1. H[Aib]EGTFTSDVSK([PEG2′-PEG2′-γGlu-Lauroyl])FLEGEAAEEFIK([PEG2′-PEG2′-γGlu-Lauroyl])WVVEGG-NH2 [SEQ ID NO: 237]
2. H[Aib]EGS[αMeF]TSDV[αMeS]SYK([PEG2′-PEG2′-γGlu-Palmitoyl])EGEAA[αMeK]EFIK([PEG2′-PEG2′-γGlu-Palmitoyl])WVVEGG-NH2 [SEQ ID NO: 271]
3. H[Aib]EGS[αMeF]TSDV[αMeS]SK([PEG2′-PEG2′-γGlu-Lauroyl])LEGEAA[αMeK]E[Tyr(OMe)]IAK([PEG2′-PEG2′-γGlu-Lauroyl])VVEGG-NH2 [SEQ ID NO: 406]
Asked: Arrange by Primary assay EC50 (cAMP), n2, high to low. # respond with the labels, arranged in the requested order
Given back: 2, 1, 3
(2: 0.75 nM, 1: 0.0223 nM, 3: 0.00231 nM)
